system: Bacillus subtilis; assay: Antibacterial activity against Bacillus subtilis RCMB 010063 at 1 mg/ml after 24 hrs by agar well diffusion method; format: functional; conditions: RCMB 010063, 24 h, read-out: DIZ
// values below are reported zone of inhibition at 1000 µg/mL
In your response, put the unit directly after the numeric value.

Please review the entries below; each comes with its answer.
Name the reported zone of inhibition at 1000 µg/mL value associated with the compound COc1ccc2cc(C(C)C(=O)NCc3n[nH]c(=S)[nH]3)ccc2c1 (stereo not given) 23.9 mm

// query: COc1ccc2cc(C(C)C(=O)Nc3ccc(CC(=O)O)cc3)ccc2c1 (stereo not given) 18.4 mm

// query: COc1ccc2cc(C(C)C(=O)N/C(=C/c3ccc(Cl)cc3)C(=O)Nc3ccc(C)cc3)ccc2c1 (stereo not given) 19.6 mm

// query: COc1ccc2cc(C(C)C(=O)Nc3ccc(N(C(C)=O)c4ccccc4)cc3)ccc2c1 (stereo not given) 17.1 mm

Pending compound:
Name the reported zone of inhibition at 1000 µg/mL value associated with the compound COc1ccc2cc(C(C)C(=O)Nc3ccc(Nc4ccccc4)cc3)ccc2c1 (stereo not given) 15.4 mm

Source of measurements: ChEMBL document CHEMBL3045595
